# MEASURED ON: T1, insulin (Sigma)
# T1 construct: Antigen of the polyreactivity ELISA
# PROCEDURE SUMMARY: polyreactive ELISA, insulin coated, 100 nM antibody
# Description: Insulin ([…]; Sigma) and dsDNA ([…]; Sigma) were coated onto 96-well high-binding ELISA microplates (Corning) at 50 μL per well overnight at 4° C. Plates were blocked with PBS with 0.5% BSA (blocking buffer) at room temperature (RT) for 1 h, followed by three washes with PBST (PBS with 0.1% Tween-20). […] The absorbance was measured at 450 nm using a multimode microplate reader. […]
PARAMETER: polyreactivity ELISA score

BINDER | polyreactivity ELISA score
CBD1039 whole antibody, Fc-silenced human IgG1 (LALAPA) (antibody, V domains shown) VH: QVQLVQSGAEVKKPGASVKISCKASRYTFTDYNLHWVRQAPGQGLEWIGFIYPYNGGTGYAQKFQGRATLTVDYSTSTAYMELSSLRSEDTAVYYCARDHRYNEGVSFDYWGQGTTLTVSS VL: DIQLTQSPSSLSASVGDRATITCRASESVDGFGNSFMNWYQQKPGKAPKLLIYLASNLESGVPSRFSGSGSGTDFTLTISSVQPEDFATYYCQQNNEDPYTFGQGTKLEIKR | 1
CBD1034 whole antibody, Fc-silenced human IgG1 (LALAPA) (antibody, V domains shown) VH: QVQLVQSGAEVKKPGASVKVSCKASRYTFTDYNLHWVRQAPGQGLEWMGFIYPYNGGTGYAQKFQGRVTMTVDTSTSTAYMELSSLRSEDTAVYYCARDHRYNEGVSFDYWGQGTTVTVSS VL: DIQLTQSPSSLSASVGDRATITCRASESVDGFGNSFMNWYQQKPGKAPKLLIYLASNLESGVPSRFSGSGSRTDFTLTISSVQPEDFATYYCQQNNEDPYTFGQGTKLEIKR | 1

// below: polyreactivity ELISA score requested for another binder
What value of polyreactivity ELISA score has been reported for the following binder? CBD1040 whole antibody, Fc-silenced human IgG1 (LALAPA) (antibody, V domains shown) VH: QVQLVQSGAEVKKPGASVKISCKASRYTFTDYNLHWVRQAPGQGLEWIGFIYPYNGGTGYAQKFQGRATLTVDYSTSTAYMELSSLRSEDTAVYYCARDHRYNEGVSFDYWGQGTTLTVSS VL: DIQLTQSPSSLSASVGDRATITCRASESVDGFGNSFMNWYQQKPGKAPKLLIYLASNLESGVPSRFSGSGSRTDFTLTISSVQPEDFATYYCQQNNEDPYTFGQGTKLEIKR
1
